Origin of the recorded values: patent US10888545B2

assay: Plasma levels of BTC after oral administration to mice; type: in vivo; conditions: female, mouse, plasma; single oral dose 10 mg/kg, ovariectomized athymic nude mice; 6 h
Measurement label: concentration at 6 h (ng/mL)
Lab book: enter the figure in ng/mL, no units written.

Entry Oc1ccc(-c2cc3ccc(O)cc3s2)cc1 [BTC, 2-(4-hydroxyphenyl)benzo[b]thiophen-6-ol] ; concentration at 6 h = 10
